system: T1, recombinant LILRB1 (human, UniProt Q8NHL6 24-461)
T1 construct: LILRB1-Fc proteins were also made; also called LILRB1 recombinant proteins
T1 sequence (Q8NHL6 24-461 limits assumed): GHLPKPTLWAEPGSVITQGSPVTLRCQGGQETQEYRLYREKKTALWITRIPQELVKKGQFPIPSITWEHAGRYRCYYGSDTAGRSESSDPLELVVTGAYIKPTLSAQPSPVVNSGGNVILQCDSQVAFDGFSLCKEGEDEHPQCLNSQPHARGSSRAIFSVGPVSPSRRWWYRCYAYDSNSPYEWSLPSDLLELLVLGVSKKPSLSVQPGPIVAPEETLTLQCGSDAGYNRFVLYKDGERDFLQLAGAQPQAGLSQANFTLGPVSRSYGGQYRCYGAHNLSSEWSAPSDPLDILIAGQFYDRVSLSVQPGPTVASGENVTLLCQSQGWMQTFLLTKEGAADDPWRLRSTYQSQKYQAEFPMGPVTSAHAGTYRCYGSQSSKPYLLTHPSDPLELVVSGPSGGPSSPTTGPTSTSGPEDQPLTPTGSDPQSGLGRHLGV
experiment.notes: ELISA, coated recombinant LILRB1, antibody titration;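 further: serially diluted anti-LILRB1 antibodies incubated 60 min at 37 °C on plates coated with 50 ng/well recombinant protein, TMB colorimetric development read as absorbance at 450 nm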
Provide the recorded EC50 for the entries that follow.
Numbers only, in µg/mL.

>  <binder>
B1-#56 (antibody, V domains shown, recombinant rabbit IgG) VH: QSLEESGGDLVQPEGSLTLTCTASGFSFSINLYMCWVRQAPGKGLEWIACIYGNNNANTYYTTWAKGRFTISKTSPTTVTLQMTSLTGADTATYFCARDTAAYYAFSLWGPGTLVTISS VL: ELVMTQTPSSSSAAVGGTVTIKCQASQSIGSRFAWYQQKPGQRPKLLIYEASKLPSGVPSRFKGSGSGTEFTLTISDLECADAAIYYCQCTYYESSSGGGFGGGTEVVVK

>  <measurement.kind>
EC50

>  <uom>
µg/mL

>  <readout.number>
0.0438

$$$$

# per-item lookup of EC50; items listed below
1. B1-#19 (antibody, V domains shown, recombinant rabbit IgG) VH: EQSVEESGGGLVKPEGSLTLTCKASGLDFSSSYWSCWVRQTPGRGLEWIGCIDVGSSGGSYYASWARGRFTVSKGSSTTVTLQMTSLTAADTATYFCASTTTNVFGYDLWGPGTLVTVSS VL: ELDLTQTPASVSEPVGGTVTIKCQASQNIYNNLAWYQQKPGQPPKLLIYYASTLASGVPPRFSGSGSGTEYTLTISDLECDDAATYYCQNNAGIYGGYGHGFGGGTEVVVK
2. B1-#202-2 (antibody, V domains shown, recombinant rabbit IgG) VH: SQSLEESGGGLVKPGASLTLTCKGSGFSFNGDYYMCWVRQTPGKGLEWIGCIYAAGDDTYYATWAKGRFTISKTSSTTVTLQMTSLTAADTATYFCARDQADSYAFGLWGPGTLVTISS VL: ELVLTQTASPVSGAVGGTVTIKCQASQNIYSNLAWYQQKPGQPPKLLIYSASKLASGVPSRFKGSGSGTEYTLTISGVQCEDAATYYCQSYYYTASADTTFGGGTEVEIK

[0.0196, 0.0594]
